measurement.protocol: qHTS for Inhibitors of Inflammasome Signaling: IL-1-beta AlphaLISA Primary Screen; also: % is scaled to controls: 0 for no effect and ±100 for the full control effect
test.context: THP-1 LPS/ATP IL-1B secretion, 16 h; at 57.5 µM
In all, about 360,000 compounds went through this assay and about 17,000 (4.7%) were called active. Inconclusive results (about 5%) are left out. Rule as the data show it: active = activity change below about -50%; inconclusive = mostly about -30% to -49%; inactive = weaker than that. The sample holds actives, similar compounds and a random draw of the others, so the mix is not that of the screen.
Select the matching outcome among y for active, n for inactive

Example cases with answers are listed next.
| compound | class |
| --- | --- |
| O=C(Nc1c(Br)cc2c(c1Br)Cc1cc([N+](=O)[O-])ccc1-2)C(Cl)Cl | n |
| Cc1ccc(NC(=O)CCCNC(=O)c2ccc(Cl)cc2)cc1S(=O)(=O)N1CCCCC1 | n |
| COc1ccccc1-c1cc(NC(C)=O)c2ncc(-c3ccc(F)cc3)n2c1 | n |
| CN/C(=C\[N+](=O)[O-])NCCSCc1csc(CN(C)C)n1 | n |
| CCCCNC(=O)N1CCCC(N(C)CCc2ccc(OC)c(OC)c2)C1 (configuration not stated) | n |

Task item: What is the recorded call for this compound in the test? CC(=O)Nc1cc(-c2ccc(N3CCN(C)CC3)cc2)cn2c(-c3ccc(F)cc3)cnc12
Reply: y

Task item: Subsequent entry: O=C(Nc1ccn(CCCNCc2ccc3[nH]ccc3c2)c(=O)n1)OCc1ccccc1
Reply: n

Task item: Subsequent entry: O=C(Nc1cccc(F)c1)N1C2CCC1CC(O)(c1cccnc1)C2 (configuration not stated)
Reply: n

Task item: Subsequent entry: COc1ccc(-c2c(C#Cc3ccccc3)c3ccccc3n2C)cc1
Reply: n

Task item: Subsequent entry: CC1(C)CC(=O)C=C(Nc2ccccc2)C1
Reply: n

Task item: Subsequent entry: CC1(C(=O)NCc2ccc3c(c2)OCO3)CCN1C(=O)Cc1cccs1 (configuration not stated)
Reply: n

Task item: Subsequent entry: CC(C)(C)S(=O)N1Cc2cc(C(=O)NCCCN3CCOCC3)nc(-c3cccc(-c4cc5ccccc5o4)c3)c2[C@H]1CCO (some centres not stated)
Reply: n

Task item: Subsequent entry: COc1ccc(-c2nc3ccccc3c(=O)n2CCc2ccc(O)cc2)cc1
Reply: n

Task item: Subsequent entry: Oc1cccc(CCc2ccccn2)c1
Reply: n

----------
measurement.protocol: qHTS for Inhibitors of Inflammasome Signaling: IL-1-beta AlphaLISA Primary Screen
test.context: THP-1 LPS/ATP IL-1B secretion, 16 h; at 57.5 µM, active compounds read low
Out of some 360,000 compounds screened, about 17,000 (4.7%) were called active. Not shown: some 5% with an inconclusive outcome. What follows is part of a selection rich in actives, with near analogues and random picks from the rest.
property.name: activity change (%)
Only the number, expressed in %, is required.

| molecule | activity change / % |
| --- | --- |
| Cc1cccc(N(C(=O)c2csnn2)C(C(=O)NCc2ccccc2)c2ccncc2)c1 (centres undefined) | -12.7 |
| C[C@H](CO)N1C[C@H](C)[C@H](CN(C)CC2CC2)Oc2ccc(NC(=O)CCN3CCOCC3)cc2C1=O | 18.8 |
| CCc1ccc([C@@H]2CC(=O)[C@@H]3CN(S(=O)(=O)c4ccc(C)cc4)[C@H](c4ccc(Cl)cc4)C[C@@H]3N2S(=O)(=O)c2ccc(C)cc2)cc1 | 9.82 |
| Cc1ccc(O)c(-c2cc(C(=O)Nc3c(C)n(C)n(-c4ccccc4)c3=O)[nH]n2)c1 | 0 |
| O=C(Nc1cccc(S(=O)(=O)NC2=NCCC2)c1)C1CCCCC1 | 23.8 |

Attention now turns to another entry.
Task item: Look up activity change: CN=C(NC#N)NCCSCc1nc[nH]c1C
Reply: 33.7
